System: Fibroblast growth factor receptor 3 (Homo sapiens, UniProt P22607, V555L)
Sequence (P22607 23-806 V555L limits assumed): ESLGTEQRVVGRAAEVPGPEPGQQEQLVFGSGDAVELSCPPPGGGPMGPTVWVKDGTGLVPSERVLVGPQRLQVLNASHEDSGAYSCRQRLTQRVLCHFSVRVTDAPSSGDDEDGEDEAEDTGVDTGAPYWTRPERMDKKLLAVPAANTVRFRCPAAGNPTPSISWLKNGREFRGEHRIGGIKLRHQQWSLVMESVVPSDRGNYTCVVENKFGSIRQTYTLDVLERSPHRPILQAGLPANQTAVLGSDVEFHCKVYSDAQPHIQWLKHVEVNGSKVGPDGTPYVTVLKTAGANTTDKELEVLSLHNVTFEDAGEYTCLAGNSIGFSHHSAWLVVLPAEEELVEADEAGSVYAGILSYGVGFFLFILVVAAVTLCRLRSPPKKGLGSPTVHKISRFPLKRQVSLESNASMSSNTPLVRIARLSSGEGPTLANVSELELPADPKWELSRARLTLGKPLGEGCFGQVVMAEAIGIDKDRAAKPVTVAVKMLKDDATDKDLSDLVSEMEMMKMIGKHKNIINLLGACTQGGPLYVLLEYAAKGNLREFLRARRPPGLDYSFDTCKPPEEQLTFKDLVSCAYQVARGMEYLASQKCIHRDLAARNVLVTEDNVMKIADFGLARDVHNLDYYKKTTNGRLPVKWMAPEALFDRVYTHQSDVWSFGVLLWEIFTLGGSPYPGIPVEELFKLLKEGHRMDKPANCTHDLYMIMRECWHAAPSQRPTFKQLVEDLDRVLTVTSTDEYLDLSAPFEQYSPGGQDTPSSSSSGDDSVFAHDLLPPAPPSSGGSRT
Test name: Inhibition of FGFR3 V555L mutant (unknown origin) by caliper mobility shift assay

Chemical string: C=CC(=O)Nc1ccc(Nc2nc(Nc3ccc(N4C[C@@H](C)N[C@@H](C)C4)c(OC)c3)ncc2Cl)cc1Cl
System: Fibroblast growth factor receptor 3 (Homo sapiens, UniProt P22607, V555L)
Scale unit: nM
IC50: 2.2

* * *

Test name: Half life in male Sprague-Dawley rat at 10 mg/kg, po by UHPLC-MS/MS analysis
Assay type: ADME, organism-based
Measurement parameters: in vivo
Endpoint name: half-life (h)

Chemical string: C=CC(=O)Nc1ccc(Nc2nc(Nc3ccc(N4C[C@@H](C)N[C@@H](C)C4)c(OC)c3)ncc2Cl)cc1Cl
Endpoint name: half-life
Reading: 5.18

* * *

Test name: AUC(0 to t) in male Sprague-Dawley rat at 10 mg/kg, po by UHPLC-MS/MS analysis
Assay type: ADME, organism-based
Measurement parameters: in vivo
Endpoint name: AUC(0-t) (ng·h/mL)

Chemical string: C=CC(=O)Nc1ccc(Nc2nc(Nc3ccc(N4C[C@@H](C)N[C@@H](C)C4)c(OC)c3)ncc2Cl)cc1Cl
Reading: 7800

* * *

Test name: AUC(0 to t) in male Sprague-Dawley rat at 2 mg/kg, iv by UHPLC-MS/MS analysis
Assay type: ADME, organism-based
Measurement parameters: in vivo

Chemical string: C=CC(=O)Nc1ccc(Nc2nc(Nc3ccc(N4C[C@@H](C)N[C@@H](C)C4)c(OC)c3)ncc2Cl)cc1Cl
AUC(0-t): 1940 ng·h/mL

* * *

Test name: Cmax in male Sprague-Dawley rat at 2 mg/kg, iv by UHPLC-MS/MS analysis
Type: ADME, organism-based
Measurement parameters: in vivo

Chemical string: C=CC(=O)Nc1ccc(Nc2nc(Nc3ccc(N4C[C@@H](C)N[C@@H](C)C4)c(OC)c3)ncc2Cl)cc1Cl
Cmax: 816 ng/mL

* * *

Test name: AUC(0 to infinity) in male Sprague-Dawley rat at 2 mg/kg, iv by UHPLC-MS/MS analysis
Assay type: ADME, organism-based
Measurement parameters: in vivo

Chemical string: C=CC(=O)Nc1ccc(Nc2nc(Nc3ccc(N4C[C@@H](C)N[C@@H](C)C4)c(OC)c3)ncc2Cl)cc1Cl
Scale unit: ng·h/mL
AUC(0-inf): 5400

* * *

System: A549
Test name: cells
Measurement parameters: Homo sapiens, A549, 48 h
Description: Antiproliferative activity against human A549 cells assessed as inhibition of cell proliferation incubated for 48 hrs by MTT assay
pIC50: −log10 of the molar value.
# reported pIC50; entries follow

Molecule: C=CC(=O)N1CC[C@H](n2nc(C#Cc3cc(OC)cc(OC)c3)c3c(N)ncnc32)C1 [FUTIBATINIB]
Bound sign: <
pIC50: 4.70

Molecule: C=CC(=O)Nc1ccc(Nc2nc(Nc3ccc(N4CCN(C)CC4)nc3)ncc2Cl)cc1Cl
Bound sign: =
pIC50: 5.50

Molecule: C=CC(=O)Nc1ccc(Nc2nc(Nc3ccc(N4CCN(C)CC4)c(F)c3)ncc2Cl)cc1Cl
Bound sign: =
pIC50: 5.38

Molecule: C=CC(=O)Nc1ccc(Nc2nc(Nc3ccc(N4CCN(CC)CC4)c(OC)c3)ncc2Cl)cc1Cl
Bound sign: =
pIC50: 5.04

Molecule: C=CC(=O)Nc1ccc(Nc2nc(Nc3ccc(N4C[C@@H](C)N[C@@H](C)C4)c(OC)c3)ncc2Cl)cc1Cl
Bound sign: =
pIC50: 6.42

Molecule: C=CC(=O)Nc1ccc(Nc2nc(Nc3ccc(N4CCC(N(C)C)CC4)c(OC)c3)ncc2Cl)cc1Cl
Bound sign: =
pIC50: 4.92

Molecule: C=CC(=O)Nc1ccc(Nc2nc(Nc3ccc(N4C[C@@H](C)N[C@@H](C)C4)cc3)ncc2Cl)cc1Cl
Bound sign: =
pIC50: 5.93

* * *

Test name: Half life in male Sprague-Dawley rat at 2 mg/kg, iv by UHPLC-MS/MS analysis
Format: ADME, organism-based
Measurement parameters: in vivo
Endpoint name: half-life (h)

Chemical string: C=CC(=O)Nc1ccc(Nc2nc(Nc3ccc(N4C[C@@H](C)N[C@@H](C)C4)c(OC)c3)ncc2Cl)cc1Cl
Endpoint name: half-life
Reading: 3.55

* * *

System: Fibroblast growth factor receptor 2 (Homo sapiens, UniProt P21802, V564I)
Sequence (P21802 22-821 V564I limits assumed): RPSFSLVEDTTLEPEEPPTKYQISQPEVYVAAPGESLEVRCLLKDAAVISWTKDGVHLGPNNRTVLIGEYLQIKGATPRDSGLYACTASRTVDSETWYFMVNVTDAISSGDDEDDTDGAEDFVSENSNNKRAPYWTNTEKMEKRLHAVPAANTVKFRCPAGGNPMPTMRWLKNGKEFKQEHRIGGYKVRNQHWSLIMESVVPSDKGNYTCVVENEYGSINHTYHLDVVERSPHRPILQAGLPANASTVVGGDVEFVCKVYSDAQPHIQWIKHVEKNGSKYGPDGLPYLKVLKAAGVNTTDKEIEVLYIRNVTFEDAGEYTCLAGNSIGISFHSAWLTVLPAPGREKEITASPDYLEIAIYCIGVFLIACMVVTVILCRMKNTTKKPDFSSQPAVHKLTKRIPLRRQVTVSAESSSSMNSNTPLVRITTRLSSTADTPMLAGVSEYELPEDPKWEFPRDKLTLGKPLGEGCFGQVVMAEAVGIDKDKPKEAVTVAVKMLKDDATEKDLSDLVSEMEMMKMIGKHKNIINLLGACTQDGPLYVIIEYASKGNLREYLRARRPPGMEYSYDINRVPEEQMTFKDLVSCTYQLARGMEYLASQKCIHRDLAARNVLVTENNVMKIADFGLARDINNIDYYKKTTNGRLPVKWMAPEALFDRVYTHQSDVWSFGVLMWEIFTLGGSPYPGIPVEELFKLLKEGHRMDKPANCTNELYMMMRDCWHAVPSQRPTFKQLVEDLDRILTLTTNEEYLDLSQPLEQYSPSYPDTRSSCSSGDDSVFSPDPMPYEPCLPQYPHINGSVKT
pIC50: −log10 of the molar value.

Chemical string: C=CC(=O)Nc1ccc(Nc2nc(Nc3ccc(N4C[C@@H](C)N[C@@H](C)C4)c(OC)c3)ncc2Cl)cc1Cl
pIC50: 7.52

* * *

Test name: AUC(0 to infinity) in male Sprague-Dawley rat at 10 mg/kg, po by UHPLC-MS/MS analysis
Format: ADME, organism-based
Measurement parameters: in vivo

Chemical string: C=CC(=O)Nc1ccc(Nc2nc(Nc3ccc(N4C[C@@H](C)N[C@@H](C)C4)c(OC)c3)ncc2Cl)cc1Cl
AUC(0-inf) / ng·h/mL: 12900

* * *

Test name: Tmax in male Sprague-Dawley rat at 2 mg/kg, iv by UHPLC-MS/MS analysis
Format: ADME, organism-based
Measurement parameters: in vivo
Endpoint name: Tmax (min)

Chemical string: C=CC(=O)Nc1ccc(Nc2nc(Nc3ccc(N4C[C@@H](C)N[C@@H](C)C4)c(OC)c3)ncc2Cl)cc1Cl
Reading: 4.8

Hey, just so you know, these numbers are from ChEMBL document CHEMBL6103630.
